# target_under_test: GPR139 (Homo sapiens, UniProt Q6DWJ6)
# Sequence (Q6DWJ6 1-353): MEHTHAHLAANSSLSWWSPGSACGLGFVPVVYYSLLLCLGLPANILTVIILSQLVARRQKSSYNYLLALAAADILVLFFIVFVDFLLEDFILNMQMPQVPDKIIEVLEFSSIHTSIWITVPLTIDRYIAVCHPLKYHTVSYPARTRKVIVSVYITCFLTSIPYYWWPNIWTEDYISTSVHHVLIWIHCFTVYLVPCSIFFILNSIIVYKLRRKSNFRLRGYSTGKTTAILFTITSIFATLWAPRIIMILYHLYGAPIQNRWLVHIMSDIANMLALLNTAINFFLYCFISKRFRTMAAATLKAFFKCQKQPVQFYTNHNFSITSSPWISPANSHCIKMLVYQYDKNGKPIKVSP
# assay_notes: GTPγS binding assay, single-concentration screen, COS7 membranes co-expressing GPR139 and GO2Q
# Type: biochemical
# Set-up: expressed in transfected cells; host or cells: COS7 (membranes)
# particulars: 1 mM
assay_endpoint: Activation of GPR139 in the GTPγS binding assay

| compound | meas_value |
| --- | --- |
| N[C@@H](Cc1ccccc1)C(=O)O | able to activate GPR139 |
| N[C@@H](Cc1c[nH]c2ccccc12)C(=O)O | able to activate GPR139 |
| CC(N)Cc1ccccc1 (centres unmarked) | activated GPR139 |
| NCCc1ccccc1 | activated GPR139 |
| NCCc1c[nH]c2ccccc12 | activated GPR139 |

---

# target_under_test: GPR139 (Homo sapiens)
# assay_notes: Calcium mobilization assay (FLIPR), GPR139 expressed in HEK293 cells
# particulars: GPR139 expressing HEK293 cells; read-out: EC50 (half maximal effective concentration), calcium mobilization

| molecule | EC50 |
| --- | --- |
| N[C@@H](Cc1ccccc1)C(=O)O [Phe, L-phenylalanine] | 100 to 200 µM |
| N[C@@H](Cc1c[nH]c2ccccc12)C(=O)O [Trp, L-tryptophan] | 100 to 200 µM |

---

# target_under_test: GPR139 (Homo sapiens, UniProt Q6DWJ6)
# assay_notes: Calcium mobilization assay (FLIPR), GPR139 expressed in HEK293 cells
# Type: cell-based
# Set-up: expressed in transfected cells; host or cells: HEK293 (transient)
# particulars: HEK293; 300 μM; calcium mobilization as percentage of that observed for L-phenylalanine; read-out: % L-phenylalanine at 300 μM (average), calcium mobilization
Catalogue of Emax at 300 µM readings, one per entry.
assay_endpoint: Emax at 300 µM (%)

| item_smiles | unit_of_measurement | meas_value |
| --- | --- | --- |
| Cc1ccc(C[C@@H](N)C(=O)O)cc1 | % | 102 |
| Cc1ccc(C[C@H](N)C(=O)O)cc1 | % | 149 |
| N[C@@H](Cc1ccc(F)cc1)C(=O)O | % | 132 |
| N[C@@H](Cc1cccc(C(F)(F)F)c1)C(=O)O | % | 133 |
| N#Cc1cccc(C[C@@H](N)C(=O)O)c1 | % | 93 |
| N[C@H](Cc1ccc(Cl)cc1Cl)C(=O)O | % | 135 |
| COc1ccc(C[C@H](N)C(=O)O)cc1 | % | 128 |
| N[C@H](Cc1cccc(Cl)c1)C(=O)O | % | 147 |
| N[C@H](Cc1cc(F)cc(F)c1)C(=O)O | % | 102 |
